# viability, T/C per entry
System: 276233-004-R-J1-PDC KRAS spheroids with HUVEC/MSC, viability;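 also: cells exposed to agents for seven days before viability read; 100% = DMSO vehicle control wells and lower values mean fewer viable cells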
Test: Anticancer human tumor 276233-004-R-J1-PDC patient-derived colon adenocarcinoma cell line growth inhibition [KRAS2]
Conditions: second compound 0.1 µM; first compound 0.1 µM; stronger effect = lower value

| COMPOUND | RESULT_UNIT | viability, T/C |
| --- | --- | --- |
| COc1cc2nccc(Oc3ccc(NC(=O)C4(C(=O)Nc5ccc(F)cc5)CC4)cc3)c2cc1OC + C=CC(=O)N1CCN(c2nc(=O)n(-c3c(C)ccnc3C(C)C)c3nc(-c4c(O)cccc4F)c(F)cc23)C(C)C1 | % | 109 |
| CCNC(=O)CC1N=C(c2ccc(Cl)cc2)c2cc(OC)ccc2-n2c(C)nnc21 (stereo unspecified) + C=CC(=O)N1CCN(c2nc(OCC3CCCN3C)nc3c2CCN(c2cccc4cccc(C)c24)C3)CC1CC#N | % | 81.2 |
| O=C(c1cc(Cc2n[nH]c(=O)c3ccccc23)ccc1F)N1CCN(C(=O)C2CC2)CC1 + CNCc1ccccc1-c1csc(C(C)Nc2nc(C)nc3cc(OC)c(OC)cc23)c1 | % | 99.5 |
| CCN1CCN(Cc2ccc(Nc3ncc(F)c(-c4cc(F)c5nc(C)n(C(C)C)c5c4)n3)nc2)CC1 + CNCc1ccccc1-c1csc(C(C)Nc2nc(C)nc3cc(OC)c(OC)cc23)c1 | % | 92.1 |
| CC(C)n1nc(-c2ccc3oc(N)nc3c2)c2c(N)ncnc21 + CC1OCC2(CCN(c3cnc(Sc4ccnc(N)c4Cl)c(N)n3)CC2)C1N | % | 47.1 |
| CC1OCC2(CCN(c3cnc(Sc4ccnc(N)c4Cl)c(N)n3)CC2)C1N (stereo unspecified) + CNCc1ccccc1-c1csc(C(C)Nc2nc(C)nc3cc(OC)c(OC)cc23)c1 | % | 101 |
